This collection of values is drawn from a melting point compilation (Tetko et al.; mined from patent text by program, amines drawn as free bases though some values may be those of a salt).

Provide the recorded melting point for the entries that follow.

Exam item: Look up and state reported melting point for O=C(Cl)CCCCCCCBr
Marked response: 110 to 112 °C

Exam item: For the molecule CCS(=O)(=O)Nc1cc(-c2ncnc(C(F)(F)F)c2Cl)c(F)cc1C#N , report melting point.
Marked response: 191 to 194 °C

Exam item: Look up and state reported melting point for O=C(Cc1noc2ccccc12)NS(=O)(=O)c1ccccc1
Marked response: 171 to 172 °C

Exam item: Using known records, supply melting point for CNC(=S)C1(c2ccncc2)CCCS1 (configuration not stated)
Marked response: 178 °C

Exam item: Provide melting point value for the following molecule: CCCN(c1cc(Cl)ncn1)n1cccc1
Marked response: 52 to 54 °C

Exam item: Please report melting point for the following molecule: Nc1ccccc1-c1nnc(-c2ccc(C(=O)O)cc2)o1
Marked response: > 300 °C

Exam item: Output measured melting point for this item: CCN1C[C@@H](C(=O)OC(C)(C)C)NC1=O
Marked response: 86 to 87 °C

---

Provide the recorded melting point for the entries that follow.

Exam item: Entry CSC(=N)Nc1c(C)cccc1Cl needs its melting point filled in; supply it.
Marked response: 183 to 184 °C

Exam item: Identify the reported melting point for the following entry. CCOC(=O)Nc1ccc(C(=O)OCC)nc1
Marked response: 177 to 178 °C

Exam item: Supply measured melting point of CN1C(=O)C2(COc3cc4c(cc32)OCO4)c2ccccc21 (stereo unspecified) in your reply.
Marked response: 142 to 144 °C

Exam item: Output melting point of COc1cc(C=CC(=O)COc2ccccc2)ccc1O
Marked response: 85 to 87 °C

Exam item: Return melting point (reported value) for this molecule: CCOc1ccccc1C=[N+]([O-])C(C)C
Marked response: 59.4 °C

Exam item: Assign melting point to the following record: CSc1nnc(-c2ccc(F)cc2)c(-c2ccc(N(C)C)cc2)n1
Marked response: 144 to 146 °C

Exam item: Determine its reported melting point: C=CC(C)(C)C1=C(O)C(=O)c2ccccc2C1=O
Marked response: 60 °C

Exam item: Note down melting point recorded for N#CCCn1c2ccc(O)cc2c2c3c(c(-c4ccccc4Cl)cc21)C(=O)NC3=O
Marked response: 332 to 336 °C

Exam item: Assign melting point to the following record: C#CCCCCCCCCCCCCCO
Marked response: 42 to 44 °C

Exam item: Note down melting point recorded for Nc1ccc(F)cc1CCN1CCN(c2nsc3ccccc23)CC1
Marked response: 115 °C

Exam item: Return reported melting point. Input molecule: COc1cc(O)cc(Cl)c1
Marked response: 94 to 96 °C

Exam item: Look up and state reported melting point for COC(=O)c1ccc(N)c(C(=O)OC)c1
Marked response: 127 to 130 °C

Exam item: Fill in reported melting point for this entry: CCCC(=O)N(Cc1ccc(-c2ccccc2-c2nnn[nH]2)cc1)C(C)(C)C(=O)O
Marked response: 187 to 189 °C

Exam item: Please list melting point recorded for the molecule CCC(C)Nc1ccc([N+](=O)[O-])cc1[N+](=O)[O-] (stereo unspecified)
Marked response: 53 to 55 °C

Exam item: Please list melting point recorded for the molecule CCc1cccc(C)c1N(CN1CCOC1=O)C(=O)CCl
Marked response: 101 to 102 °C

Exam item: Give recorded melting point. CS(=O)(=O)NCCCCC(c1cc(F)ccc1F)S(=O)(=O)c1ccc(Cl)cc1 (stereo unspecified)
Marked response: 106 to 107 °C

Exam item: Check the records and state melting point for CN1C(=O)c2ccccc2N=C(N)C1c1ccccc1 (stereo unspecified)
Marked response: 282 to 286 °C

Exam item: Note down melting point recorded for Cn1cc(-c2ccc(Oc3ccc(F)cc3F)cc2)nc1C(N)=O
Marked response: 183 to 187 °C

Exam item: Let me know recorded melting point for CC(C)C(NC(=O)CCc1cccnc1)C(=O)NC(Cc1ccccc1)C(O)C(O)C(Cc1ccccc1)NC(=O)C(NC(=O)CCc1cccnc1)C(C)C (stereo unspecified) , thanks.
Marked response: 260 to 263 °C

Exam item: Using the record for COC(=O)CSCCCCN(c1cnc(-c2ccccc2)c(-c2ccccc2)n1)C(C)C , state its measured melting point.
Marked response: 64 to 67 °C

Exam item: Specify measured melting point for OCCc1ccc(OCCN2CCCCC2)cc1 .
Marked response: 68 °C

Exam item: Specify melting point for CCOC(=O)c1cc(=O)c2ccc3nc(C(=O)OC)cc(Cl)c3c2o1 and stop.
Marked response: 209 °C

Exam item: Given CC1=C(C)N(c2c(Br)cc(C)cc2Br)C2=NCCN21 , respond with its melting point.
Marked response: 154 to 156 °C

Exam item: Please give measured melting point of the following entry: COc1nc(C)nc(N2CCc3ccccc3CC2)c1[N+](=O)[O-]
Marked response: 123 to 128 °C

Exam item: Return melting point for the following molecule: [N-]=[N+]=C1CCc2ccccc2C1=O
Marked response: 50 to 52 °C

Exam item: Please look at this molecule and report its melting point: CC(=O)Oc1ccc(C(=O)OC2C=C(C)C(=O)CC(C)(C)C2O)cc1 (stereo unspecified)
Marked response: 132 to 133 °C

Exam item: Please report melting point for the following molecule: Cc1nnc(-c2ccc3occ(-c4cccc(OC(F)(F)F)c4)c3n2)o1
Marked response: 146 to 147 °C

Exam item: Give the reported melting point for this molecule. COc1ccccc1Oc1c(Cl)nc(-c2ncccn2)nc1OCCO
Marked response: 133 to 137 °C

Exam item: Input Cc1ccc(C#N)c(OC(C)(C)C=O)c1 , output reported melting point.
Marked response: 57 to 59 °C

Exam item: Input CC#CCOc1ccc(S(=O)(=O)NC)cc1 , output reported melting point.
Marked response: 78 to 80 °C

Exam item: For COc1ccc(OC)c(C=CC#N)c1 , write its melting point.
Marked response: 70 to 71 °C

---

observable: melting point

Exam item: Item O=c1[nH]c2nc(SCc3ccccc3)ncc2cc1Oc1ccc(F)cc1F : provide melting point
Marked response: 240 to 244 °C

Exam item: Indicate the recorded melting point value for this molecule: CSc1ccc(C=CC(=O)c2ccc([N+](=O)[O-])cc2)cc1
Marked response: 160 °C

Exam item: Recall and state the measured melting point for CC1(C)CCC(S)(CCOC(=O)CCC(=O)O)CC1 .
Marked response: 55 to 60 °C

Exam item: Return the recorded melting point value; entry: O=C1CC(CCN2CCC(c3c[nH]c4ccccc34)CC2)c2ccccc2N1 (stereo not drawn)
Marked response: 115 to 117 °C

Exam item: Answer with reported melting point of CCCCN(CCCC)CCCOc1ccc(C(=O)c2c(-c3ccccc3)n(C)c3ccc(NS(C)(=O)=O)cc23)cc1
Marked response: 116 °C

Exam item: Output measured melting point for this item: CC(C)NC(=O)CCCCCCI
Marked response: 46 to 51 °C

Exam item: Output measured melting point for this item: Cc1ccc(S(=O)(=O)NC2(S(=O)(=O)n3ccc(/C=C/C(=O)NO)c3)C=CC(c3ccccc3)=CC2)cc1 (stereo not drawn)
Marked response: 119 to 126 °C

Exam item: Supply recorded melting point for CC(C)N(Cc1ccc2cc(NC(=O)c3ccc(-c4ccc(Cl)cc4)cc3)ccc2c1)C(C)C here.
Marked response: 246 to 250 °C

Exam item: Item O=C1C2C3COC2(C3)c2cccnc2N1c1ccccc1 (stereo not drawn) : provide melting point
Marked response: 198 to 200 °C

Exam item: # return recorded melting point for entry COC(=O)COc1nsc2nc(C)cc(C)c12
Marked response: 89 to 91 °C

Exam item: Output measured melting point for this item: CCOC(=O)Cc1c(C)ncnc1O
Marked response: 148 to 149 °C

Exam item: For the molecule FC(F)C(F)(F)Oc1cccc(Nc2nccc(-c3ccsc3)n2)c1 , give its reported melting point.
Marked response: 110 to 111 °C

Exam item: Identify melting point associated with the molecule CCn1ncc2c3c(cnc21)C(N)(OC)N=C1N=CNN13 (stereo not drawn)
Marked response: 215 to 216 °C

Exam item: Given CC(C)(C)OC(=O)N1CCc2c(n(CC(=O)Nc3ccccc3)c3cc(Cl)c(Cl)cc23)CC1 , respond with its melting point.
Marked response: 172 °C

Exam item: Complete the entry with melting point for CCCCC(=O)c1c(CBr)nc2cc(OC)c(OC)cc2c1-c1ccc(OC)c(OC)c1
Marked response: 150 to 151 °C

Exam item: Provide one value: measured melting point of Cc1cc(C(F)(F)C(F)(F)C(F)(F)C(F)(F)F)ccc1NC(=O)c1cccc(Br)c1C(=O)NC(C)C
Marked response: 190 to 191 °C

Exam item: Report measured melting point; entry is CC(C)n1cnc2c(N[C@H](CO)c3ccccc3)nc(Cl)nc21
Marked response: 150 to 152 °C

Exam item: Item Nc1nc2c(s1)CCN(CCC=Cc1ccccc1)CC2 : provide melting point
Marked response: 157 to 158 °C

---

Can you tell me melting point for the items I'm about to list?

Exam item: // fetch melting point given entry COc1cc2c(cc1OCc1ccccc1)C=C(C(=O)O)CCC2
Marked response: 172 to 173 °C

Exam item: Provide one value: measured melting point of Cc1ccc(Cl)c(Nc2ccccc2-c2nnc(N)s2)c1Cl
Marked response: 219 to 226 °C

Exam item: Look up and state reported melting point for CNC(=O)N(OC(=O)OC)c1ccc(Cl)c(Cl)c1
Marked response: 110 °C

Exam item: Report melting point for COc1ccc(OC)c(CC(=O)c2c(O)c3cccnc3n(-c3ccccc3)c2=O)c1
Marked response: 159 to 161 °C

Exam item: Tell us which melting point value is on record for CC(C)c1[nH]n(-c2c(Cl)cc(Cl)cc2Cl)c2nc(Cc3ccc(NC(=O)OCCCN(C)C)cc3)nc(=O)c1-2
Marked response: 200 to 202 °C

Exam item: Return the recorded melting point value; entry: Cc1cc(C=NNC(=O)c2ccc(O)cc2)oc1C
Marked response: 251 °C

Exam item: Answer with reported melting point of COC(=O)CCCCCCCCOC1OC(CO)C(O)C(OC2OC(CO)C(O)C(O)C2OC2OC(C)C(O)C(O)C2O)C1NC(C)=O (stereo unspecified)
Marked response: 195 °C

Exam item: Assign melting point to the following record: CNC(=O)c1cc2c(Oc3ccc(C(=O)NCCN4CCOCC4)cc3)cncc2s1
Marked response: 226 to 228 °C

Exam item: Give the value of melting point reported for the following: Cc1cn(-c2cccc(C3=Nc4ccc(C#Cc5ccc(F)cc5)cc4NC(=O)C3)c2)cn1
Marked response: 210 °C

Exam item: Hello, please tell me recorded melting point for this one: O=[N+]([O-])c1ccc(OCC(O)COc2ccc([N+](=O)[O-])cc2)cc1
Marked response: 144 to 145 °C

Exam item: Using the record for Cc1ccccc1[C@@H]1CN(C(=O)C2CCN(C(=O)CO)CC2)CC[C@H]1C(=O)N(C)Cc1cc(C(F)(F)F)cc(C(F)(F)F)c1 (relative stereo) , state its measured melting point.
Marked response: 173 to 174 °C

Exam item: Please list melting point recorded for the compound CCC(=CC(CNC(=O)c1cccnc1C)=NO)C(C)[N+](=O)[O-] (stereo unspecified)
Marked response: 128 to 129 °C

Exam item: // fetch melting point given entry N#CCC(C#N)=CNc1c(Cl)cc(C(F)(F)F)cc1Cl
Marked response: 122 °C

Exam item: Note down melting point recorded for CCOC(=O)C(C)(NC(=O)Cc1ccc(O)c2ncccc12)C(=O)OCC
Marked response: 153 to 154 °C

Exam item: Supply measured melting point of CC1(C)C2CC=C(CCn3c(=O)nc(-c4ccccc4)c4cc([N+](=O)[O-])ccc43)C1C2 (stereo unspecified) in your reply.
Marked response: 80 to 81 °C

Exam item: Return the recorded melting point value; entry: COc1cc(-c2csc(C(N)=O)n2)cc(Cl)c1OC
Marked response: 178 to 180 °C
